- test.summary: Inhibition of human recombinant C-terminal subunit of maltase-glucoamylase-N2 by Lineweaver-Burk plot analysis
- condition.context: read-out: Ki
quantity: Ki (µM)
Give just the numeric value; µM need not be written.

Query block: Look at this molecule and give its reported Ki. CO[C@@H]([C@H](O)[C@@H](O)CO)[C@H](O)C[S@+]1C[C@@H](O)[C@H](O)[C@H]1CO
Result block: 0.06
